Data origin: patent US20240400689A1

Molecular target: T1, mouse CD276 protein (mouse, UniProt Q8VE98 29-316)
T1 construct: whole, on cells; also called mCD276; CHO-S-mCD276
T1 sequence (looked up): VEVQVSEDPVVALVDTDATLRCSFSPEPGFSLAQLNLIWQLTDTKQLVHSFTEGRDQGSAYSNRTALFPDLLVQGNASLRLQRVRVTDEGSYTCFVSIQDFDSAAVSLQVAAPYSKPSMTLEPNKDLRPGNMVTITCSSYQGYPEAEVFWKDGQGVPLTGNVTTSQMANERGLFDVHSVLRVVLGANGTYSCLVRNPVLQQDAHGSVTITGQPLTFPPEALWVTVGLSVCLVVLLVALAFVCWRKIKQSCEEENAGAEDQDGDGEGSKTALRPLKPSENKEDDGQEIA
Test: FACS on CHO-S-mCD276 cells
For each record, write down the corresponding FACS MFI.

Reported FACS MFI, binder 5-D1-G6-D9 (antibody, V domains shown, mouse monoclonal antibody (hybridoma)) VH: EVQLQESGAELVKPGASVKLSCKTSGLTFSTNYISWLKQKPGQSLEWIAWIYGGNGGTSYNQRFTGKAQLTVDTSSSTAYMQFSSLTTEDSAIYYCTSHDYYGGPMDYWGQGTSVTVSS VL: DIQMTQTTSSLSASLGDRVTISCRASQDISNYLNWYQQKPDGTVKLLIYFTSRLHSGVPSRFSASGSGTDYSLTISNLEQEDIATYFCQQTNTLPWTFGGGTKLEIK : ____
1530

Reported FACS MFI, binder 15-G1-D1-E3 (antibody, V domains shown, mouse monoclonal antibody (hybridoma)) VH: QVQLQQPGAELVKPGTSVKLSCKASGYTFTSYWIHWVKQRPGQGLEWIGMIHPKSGTVDYNEKFKSKATLTADKSSNTAYMQLSSLTSEASVVYYCARGENYDYRPQFVYWGQGTLVTVSA VL: QLVLTQSSSASFSLGASAKLTCTLSSQHSTYTIEWYQQQPLKPPKYVMELKKDGSHRTGDGIPDRFSGSSSGADRYLSISNIQPEDEAIYICGVGDTIKEQFVYVFGGGTKVTVL : ____
6610

Reported FACS MFI, binder 20-C5-D7-D3 (antibody, V domains shown, mouse monoclonal antibody (hybridoma)) VH: EVQLVESGGDLVKPGGSLKLSCAASGFTFRSYGMSWVRQTPDKRLEWVATISGGGNYTYYPDSVKGRFTISRDNAKNTLYLQMSSLKSEDTAMYYCARHEGLPLDYWGQGTTLTVSS VL: DIQMTQSPASLSASVGETVTITCRASENIYSYLAWYQQKQGKSPQLLVYNAKTLAEGVPSRFSGSGSGTQFSLKINSLQPEDFGNFYCQHHYGTPTWTFGGGTKLEIK : ____
1340
